- system-tested: c-Src SH2;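 note: peptide library displayed on the E. coli surface as eCPX fusions, selected cells deep-sequenced, score is each peptide's frequency after selection divided by its frequency in the input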
- test-details: SH2 binding enrichment of the phosphorylated peptide, bacterial display (enrichment ratio); higher = better substrate or ligand; peptides without Tyr show the background
// reported SH2 binding enrichment for each item listed
Number, no unit, nothing else.

{"columns": ["seq", "SH2 binding enrichment"],
 "data": [
  ["SVGGCYEQLFV [MC4R_Y41_D37V]", 0.76]
]}

Prompt line: Value lookup for SH2 binding enrichment; key = SEEVTYATLTF [CLEC12B_Y7]
Response line: 0.481

Prompt line: Value lookup for SH2 binding enrichment; key = RRGMPYGGLGD [TGM1_Y312_R315L]
Response line: 0.33

Prompt line: Value lookup for SH2 binding enrichment; key = DAICFYRMENA [NPHS2_Y195_YF]
Response line: 0.56

Prompt line: Value lookup for SH2 binding enrichment; key = TTICKYSTPME [GUCY2C_Y839]
Response line: 1.05

Prompt line: Value lookup for SH2 binding enrichment; key = HDRGNYVQLNM [RECQL4_Y353_R355Q]
Response line: 1.95

Prompt line: Value lookup for SH2 binding enrichment; key = NCFKFYMSDDI [ATRX_Y204_YF]
Response line: 0.689

The values you see were collected from the supplement of paper PMC10065799.
